Tested on: A549 NSCLC
Assay: NCI tumour cell line growth inhibition, 48 h
readout kind: TGI

Find the recorded TGI belonging to `CSC1=N/C(=C\c2ccco2)C(=O)N1CN1CCCCC1` and report it.
> 100 µM

Find the recorded TGI belonging to Cc1ccc(S(=O)(=O)NC2C(=O)c3ccccc3C(=O)C2n2cnc3ccccc32)cc1 (stereo not drawn) and report it.
> 100 µM

Find the recorded TGI belonging to O=C(O)CC12C3C4C5C3C1C5C42 (stereo not drawn) and report it.
> 100 µM

Find the recorded TGI belonging to `O=C(N/N=C/c1ccccc1Cl)c1ccccc1Nc1ccnc(C(F)(F)F)c1` and report it.
8.91 µM

Find the recorded TGI belonging to `Cc1cccc(Cl)c1NC(=O)/C=C/c1ccccc1` and report it.
> 100 µM

Find the recorded TGI belonging to `O=C1C(=O)c2ccccc2C(O)=C1CN(CCCl)CCCl` and report it.
> 100 µM

Find the recorded TGI belonging to CC12CCC(C(=O)N3CC=CCC3)(OC1=O)C2(C)C (stereo not drawn) and report it.
> 100 µM

Find the recorded TGI belonging to `CC(=O)Nc1c(C)ccc2c1C(=O)c1ccccc1C2=O` and report it.
> 100 µM

Find the recorded TGI belonging to `CN(C)CC/C(=N\Nc1ccccc1)c1ccccc1` and report it.
> 100 µM

Find the recorded TGI belonging to C=CCC(C(=O)O)c1ccccc1 (stereo not drawn) and report it.
> 100 µM

Find the recorded TGI belonging to COC1CC(OC2CCC3(C)C(CCC45CCC(C6=CC(=O)OC6)C(C)(CCC43)C5=O)C2)OC(C)C1O (stereo not drawn) and report it.
> 100 µM

Find the recorded TGI belonging to CCCC(C)C[C@@H](C)CC(C)/C=C(\C)c1oc(=O)c(C)c(O)c1C (stereo partly drawn) (tested in a mixture with another compound) and report it.
34 µM

Find the recorded TGI belonging to `N#Cc1c(Cl)c2ccccc2n2c1nc1ccccc12` and report it.
> 100 µM

Find the recorded TGI belonging to CCC1=CC2Cc3nc4cc(Cl)ccc4c(N)c3C(C1)C2 (stereo not drawn) and report it.
30.8 µM

Find the recorded TGI belonging to `COC1=C(N2CC2)C(=O)c2nc3n(c2C1=O)CCC3` and report it.
6.47 µM

Find the recorded TGI belonging to `O=c1oc2ccccc2nc1/C=C(\O)c1ccc([N+](=O)[O-])cc1` and report it.
> 100 µM

Find the recorded TGI belonging to COC(=O)C1[C@@H](C(=O)OC)C12C=Cc1ccccc1C=C2 (stereo partly drawn) and report it.
> 100 µM

Find the recorded TGI belonging to `CN1CCCCCC(=N\O)/C(=N/O)CCCCC1` and report it.
> 100 µM

Find the recorded TGI belonging to `CCOc1ccc(Nc2nc(-c3ccc4c(c3)NC(=O)CO4)cs2)cc1` and report it.
> 100 µM

Find the recorded TGI belonging to COc1cc2c(cc1OCCCCCCN1CCN(c3ncnc4ccccc34)CC1)N=CC1CCCN1C2=O (stereo not drawn) and report it.
5.55 µM

Find the recorded TGI belonging to `O=C(CCc1ccc(O)cc1)NCCc1cccc(OCc2ccccc2)c1` and report it.
> 100 µM

Find the recorded TGI belonging to `O=C(O)c1ccc(Nc2nc3ccccc3nc2-c2cccs2)cc1` and report it.
> 100 µM

Find the recorded TGI belonging to O=C([O][Hg][CH2]C1COCC([CH2][Hg][O]C(=O)c2ccccc2)O1)c1ccccc1 (stereo not drawn) and report it.
27.2 µM

Source of measurements: PubChem BioAssay (NCI)
